Kd for assorted binders
measured on: human insulin receptor (HIR) (human, UniProt P06213 28-1382, limits assumed)
method summary: 125I-insulin competition, solubilised HIR
Non-standard residues stand in square brackets, D forms with d. No end group written: not given here. *: point of attachment. Biotin = O=C1N[C@H]2[C@H](CS[C@H]2CCCCC(=O)*)N1; Bpa = N[C@@H](Cc1ccc(C(=O)c2ccccc2)cc1)C(=O)O
State the answer as a number, implicitly in nM.

Query: Find the recorded Kd belonging to SLEEEWAQVECEV[Bpa]GRGCPSGSLDESFYDWFERQ[Bpa]GK(Biotin) (not fully specified (bridges); printed as SLEEEWAQVECEV-Bpa-GRGCPSGSLDESFYDWFERQ-Bpa-GK(Biotin); cysteine pairing not given here) [S546] and report it.
Response: 26

Query: For the binder S439 (not fully specified (bridges); cysteine pairing not given here; also: K16 of chain 1 chemically linked to C-terminus of chain 2 (C-C on a lysine)) peptide 1: ESFYDWFERQLGGGGK peptide 2: QEWAWVQCEVYGRGCPS , what Kd is on record?
Response: 46

Query: # lookup: Kd of GSLDESFYDWFERQLGGGSGGSWLDEEWAQVQCEVYGRGCPS [S543]
Response: 0.019

Query: Return reported Kd; argument: SLEEEWAQVECEVYGRGCXESFYDWFERQLG (not fully specified; X19 = βturn (unit not explained)) [S580]
Response: 0.012

Source listed as patent US20030236190A1.
